- MEASURED ON: TXA2 /PGH2 receptor of the platelet membranes (Homo sapiens, UniProt P21731)
- Construct: TXA2 /PGH2 receptor, to platelet membranes whose PC's or PE's are enriched either in 18:2n-6 or in DHA; from tissue; host or cells: platelet membranes (phospholipids exchanged with maize or endogenous platelet transfer protein)
- Sequence (P21731 1-343): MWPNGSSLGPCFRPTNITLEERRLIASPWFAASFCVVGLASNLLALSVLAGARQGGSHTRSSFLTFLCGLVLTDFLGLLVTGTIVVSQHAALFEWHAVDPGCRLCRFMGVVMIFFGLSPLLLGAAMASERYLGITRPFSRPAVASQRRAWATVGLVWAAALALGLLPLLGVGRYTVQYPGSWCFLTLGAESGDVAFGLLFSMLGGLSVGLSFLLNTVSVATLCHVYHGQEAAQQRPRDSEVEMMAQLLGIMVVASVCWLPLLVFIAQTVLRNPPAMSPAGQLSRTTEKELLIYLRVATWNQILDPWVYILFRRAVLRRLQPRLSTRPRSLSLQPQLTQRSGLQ
- ASSAY SUMMARY: Specific binding of tritiated SQ29,548 to the TXA2/PGH2 receptor of platelet membranes whose PC's or PE's are enriched in 18:2n-6 or DHA
- CONDITION SUMMARY: mean of three tests; PC's enriched; (a) p < 0.05 compared with the control and with PC 18:2n6 for PC 22:6n-3; read-out: Kd of SQ 29.548
READOUT TYPE: pKd
Answers are plain numbers, as −log10 of the molar value.

Asked: So what does the record say about pKd for CC/C=C\C/C=C\C/C=C\C/C=C\C/C=C\C/C=C\CCC(=O)OC(COC(=O)CCCCCCCCCCCCCCC)COP(=O)([O-])OCC[N+](C)(C)C (stereo not shown) ?
Given back: 8.15
